- EXPERIMENTAL_TARGET: Histone-lysine N-methyltransferase NSD3 (Homo sapiens)
- PROCEDURE_TEXT: Induction of NSD3 degradation in human NCI-H1703 cells at 5 uM incubated for 72 hrs by Western blot analysis
- Assay type: cell-based
PROPERTY_LABEL: NSD3 degradation (%)

Here's what some known entries look like.
# COMPOUND, EXPERIMENTAL_TARGET, PROPERTY_LABEL, UNIT_DESCRIPTOR, NUMERIC_RESULT
data = [
    ("Cc1cc(CNCCCCCCCCCCCNc2cccc3c2C(=O)N(C2CCC(=O)NC2=O)C3=O)cc(C)c1-c1ncn(C)c1-c1ccnc2cc(F)ccc12 (stereo unspecified)", "Histone-lysine N-methyltransferase NSD3 (Homo sapiens)", "NSD3 degradation", "%", 15.6),
    ("Cc1cc(CNCCOCCOCCOCCC(=O)N[C@H](C(=O)N2C[C@H](O)C[C@H]2C(=O)N[C@@H](C)c2ccc(-c3scnc3C)cc2)C(C)(C)C)cc(C)c1-c1ncn(C)c1-c1ccnc2cc(F)ccc12", "Histone-lysine N-methyltransferase NSD3 (Homo sapiens)", "NSD3 degradation", "%", 7.4),
    ("Cc1cc(CNCCCCCCC(=O)N[C@H](C(=O)N2C[C@H](O)C[C@H]2C(=O)N[C@@H](C)c2ccc(-c3scnc3C)cc2)C(C)(C)C)cc(C)c1-c1ncn(C)c1-c1ccnc2cc(F)ccc12", "Histone-lysine N-methyltransferase NSD3 (Homo sapiens)", "NSD3 degradation", "%", 6.3),
    ("Cc1cc(CNCCOCCOCCOCC(=O)N[C@H](C(=O)N2C[C@H](O)C[C@H]2C(=O)N[C@@H](C)c2ccc(-c3scnc3C)cc2)C(C)(C)C)cc(C)c1-c1ncn(C)c1-c1ccnc2cc(F)ccc12", "Histone-lysine N-methyltransferase NSD3 (Homo sapiens)", "NSD3 degradation", "%", 10.7),
]

A. Cc1cc(CNCCCCCCCCCNc2cccc3c2C(=O)N(C2CCC(=O)NC2=O)C3=O)cc(C)c1-c1ncn(C)c1-c1ccnc2cc(F)ccc12 (stereo unspecified)
B. Cc1cc(CNCCCCC(=O)N[C@H](C(=O)N2C[C@H](O)C[C@H]2C(=O)N[C@@H](C)c2ccc(-c3scnc3C)cc2)C(C)(C)C)cc(C)c1-c1ncn(C)c1-c1ccnc2cc(F)ccc12
Q: API: POST /compare with A and B ; response names the item with higher NSD3 degradation. The response must carry the label of the picked entry.
Result: A
(A: 1.7%, B: -4.2%)
